B1: KCNK9 (parent)
chain: DVPDLQSVCSCTCYRSQDYGGRSV

# Variants of: B1
# MEASUREMENT_NOTES: protein stability index of a GFP-peptide fusion (GPS, HEK-293T) (PSI 1-6); higher = more stable;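 note: lentivirally expressed fusions sorted by FACS into six bins by GFP to DsRed ratio, PSI derived from sequencing read proportions per bin multiplied by bin number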
# PARTICULARS: c terminus: a fixed tail appended
// label = satisfied if protein stability index is not less than 2, otherwise not satisfied

Sample answers from the record:
# MUTATION_NOTATION, QUALITATIVE_LABEL
records = [
    ("R22D", "satisfied"),
    ("S23G", "satisfied"),
    ("G21T", "satisfied"),
    ("T12F", "satisfied"),
    ("C13Y", "not satisfied"),
    ("Q17M", "satisfied"),
]

Prompt line: Does Y14M have a reported protein stability index of at least 2?
Response line: satisfied

Prompt line: Does Q6I have a reported protein stability index of at least 2?
Response line: satisfied

Prompt line: Does V24C have a reported protein stability index of at least 2?
Response line: not satisfied

Prompt line: Does T12N have a reported protein stability index of at least 2?
Response line: not satisfied

Prompt line: Does Q6D have a reported protein stability index of at least 2?
Response line: satisfied
